# assaySystem: recombinant GSK3β enzyme (human GSK3β) (Homo sapiens, UniProt P49841)
# Construct: FLAG (N)
# Sequence (P49841 whole entry): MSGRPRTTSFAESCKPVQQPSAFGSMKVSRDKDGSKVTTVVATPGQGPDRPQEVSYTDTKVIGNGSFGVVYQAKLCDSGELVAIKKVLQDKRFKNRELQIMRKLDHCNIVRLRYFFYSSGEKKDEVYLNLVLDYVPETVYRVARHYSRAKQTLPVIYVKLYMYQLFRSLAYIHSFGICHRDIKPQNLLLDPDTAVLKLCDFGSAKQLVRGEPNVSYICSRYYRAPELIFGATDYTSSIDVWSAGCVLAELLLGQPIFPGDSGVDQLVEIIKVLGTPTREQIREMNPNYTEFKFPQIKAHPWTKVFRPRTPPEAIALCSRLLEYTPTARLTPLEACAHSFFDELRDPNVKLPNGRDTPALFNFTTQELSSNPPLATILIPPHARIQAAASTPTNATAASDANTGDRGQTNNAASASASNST
# measurementProtocol: Measurement of GSK3β inhibitory activity
# settings: glycogen synthase peptide substrate, Kinase Glo luminescence, read-out: IC50 (concentration of test compound needed for 50% inhibition of luminescent intensity), GSK3β inhibitory activity
# Description: Human GSK3β gene was cloned by a PCR method using a primer set: […] 10 μl of ATP solution (2.5 μM ATP) was added to the obtained mixture, and the mixture was reacted at room temperature for 30 min. […] After reaction at room temperature for 10 min, the luminescent intensity was measured using ARVO multilabel counter (PerkinElmer Life Sciences). […]
pIC50: −log10 of the molar value.
Listed here: items and their measured pIC50.

Example entries and their recorded answers appear below.
>  <compound>
O=C(COc1ccccc1)Nc1c[nH]nc1C(=O)NCCc1ccccc1 [Example 123]

>  <assaySystem>
recombinant GSK3β enzyme (human GSK3β) (Homo sapiens, UniProt P49841)

>  <pIC50>
> 7.00

$$$$
>  <compound>
O=C(CCc1ccccc1)Nc1c[nH]nc1C(=O)NCc1ccco1 [Example 149]

>  <assaySystem>
recombinant GSK3β enzyme (human GSK3β) (Homo sapiens, UniProt P49841)

>  <pIC50>
6.48

$$$$
>  <compound>
CC(C)NC(=O)c1n[nH]cc1NC(=O)c1ccccn1 [Example 345]

>  <assaySystem>
recombinant GSK3β enzyme (human GSK3β) (Homo sapiens, UniProt P49841)

>  <pIC50>
> 7.00

$$$$

Q) # return recorded pIC50 for input N#CCCNC(=O)c1n[nH]cc1NC(=O)C1CCCC1 [Example 411]
A) > 7.00

Q) # return recorded pIC50 for input O=C(Nc1c[nH]nc1C(=O)NC1Cc2ccccc2C1)c1ccccn1 [Example 339]
A) > 7.00

Q) # return recorded pIC50 for input COc1ccc(C(=O)Nc2c[nH]nc2C(=O)NC2CCCC2)cc1 [compound 072]
A) > 7.00

Q) # return recorded pIC50 for input O=C(CC1CCCC1)Nc1c[nH]nc1C(=O)NCc1ccco1 [Example 143]
A) 6.81

Q) # return recorded pIC50 for input O=C(Nc1ccccc1)c1n[nH]cc1NC(=O)C1CCCCC1 [compound 084]
A) > 7.00

Q) # return recorded pIC50 for input O=C(COc1ccccc1)Nc1c[nH]nc1C(=O)Nc1ccccc1 [compound 083]
A) > 7.00
